Biological target: human TYK2 (Homo sapiens)
Construct: catalytic domain (amino acids 871-1187; catalog number 08-147)
Sequence (P29597 871-1187): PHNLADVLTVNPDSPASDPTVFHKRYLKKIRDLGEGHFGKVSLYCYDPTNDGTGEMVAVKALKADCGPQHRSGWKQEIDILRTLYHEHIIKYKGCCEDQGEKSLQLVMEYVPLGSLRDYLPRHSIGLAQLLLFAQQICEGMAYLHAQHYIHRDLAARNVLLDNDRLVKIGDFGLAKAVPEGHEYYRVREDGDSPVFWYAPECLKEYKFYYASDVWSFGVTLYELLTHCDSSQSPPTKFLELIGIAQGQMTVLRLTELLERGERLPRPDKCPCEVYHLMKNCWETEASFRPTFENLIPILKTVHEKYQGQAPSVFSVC
Assay: TYK2 inhibition assay
Conditions: recombinant human TYK2 catalytic domain, polyGT substrate
ASSAY ENDPOINT: IC50

The examples below pair each entry with its known result.
CCc1cc(C2=CCN(C(=O)CC(C)(C)O)CC2)ccc1N(C)c1cc2c(cn1)ncn2C [Compound 200] :: 0.01 to 100 nM
CCc1cc(C2CN(CCC(F)(F)F)C2)ncc1N(C)c1cc2c(cn1)ncn2C [Compound 341] :: > 1000 nM
CCc1cc(C2CN(C(C)=O)C2)ncc1N(C)c1cc2c(cn1)ncn2C [Compound 332] :: > 1000 nM
CCc1cc(CNS(=O)(=O)N(C)C)ccc1N(C)c1cc2c(cn1)ncn2C [Compound 375] :: 101 to 500 nM

Consider the record given below.
Checklist item: IC50 tested on human TYK2 (Homo sapiens), entry CCc1cc(-c2nc(C)no2)ccc1N(C)c1cc2c(cn1)ncn2C [Compound 178] , value?
101 to 500 nM
